# ASSAY EXPLANATION: Acute oral toxicity evaluation in rats
# Assay type: in vivo, Wistar albino rats
# REPORTED CONDITIONS: single oral dose 10 mg/kg, after 14 days, (absolute organ weight × 100%)/body weight
Listed next: entries and their corresponding Relative organ weight, stomach.
Give your answer as a number; write no unit.

Examples from the recorded data:
query: Consider the compound shown here: "COc1ccc2cc([C@H](C)C(=O)NC(=S)Nc3ccc(F)cc3)ccc2c1" What is its recorded Relative organ weight, stomach?
result: 0.54

query: Entry "CCOc1ccc(NC(=S)NC(=O)[C@@H](C)c2ccc3cc(OC)ccc3c2)cc1" : reported Relative organ weight, stomach = ?
result: 0.50

query: What measured Relative organ weight, stomach goes with "COc1ccc(NC(=S)NC(=O)[C@@H](C)c2ccc3cc(OC)ccc3c2)cc1" ?
result: 0.57

New cases:
query: So what's the measured Relative organ weight, stomach for this one? "COC(=O)[C@H](Cc1cn(C)c2ccccc12)NC(=S)NC(=O)[C@@H](C)c1ccc2cc(OC)ccc2c1"
result: 0.50

query: Which Relative organ weight, stomach value belongs to CCOC(=O)C(Cc1ccccc1)NC(=S)NC(=O)C(C)c1ccc2cc(OC)ccc2c1 (stereo not shown) ?
result: 0.55

query: # lookup: Relative organ weight, stomach of "COc1ccc2cc([C@H](C)C(=O)NC(=S)Nc3ccc(C(C)=O)cc3)ccc2c1"
result: 0.53

query: Suppose we examine the compound "COc1cccc(NC(=S)NC(=O)[C@@H](C)c2ccc3cc(OC)ccc3c2)c1" ; what Relative organ weight, stomach value has been reported?
result: 0.50

* * *

# Tested on: carrageenan-induced rat paw edema
# ASSAY EXPLANATION: Carrageenan-induced rat paw edema model
# Type: in vivo, Wistar albino rats
# REPORTED CONDITIONS: 2.5 mg/kg per os, 2 h after carrageenan, mean ± SD
Rat paw thickness strictly less than 6 mm = t. Otherwise f.

Below are worked cases with known answers.
query: Quick check: does "COC(=O)[C@H](Cc1cn(C)c2ccccc12)NC(=S)NC(=O)[C@@H](C)c1ccc2cc(OC)ccc2c1" have Rat paw thickness under 6 mm?
result: f

query: Regarding "COc1ccc2cc([C@H](C)C(=O)NC(=S)Nc3ccc(F)cc3)ccc2c1" , kindly confirm whether its Rat paw thickness is beneath 6 mm.
result: f

query: State whether 6 mm exceeds Rat paw thickness recorded for "COc1cccc(NC(=S)NC(=O)[C@@H](C)c2ccc3cc(OC)ccc3c2)c1" .
result: t

Now, please, on to the next compound.
query: Does "COc1ccc2cc([C@H](C)C(=O)NC(=S)Nc3ccc(C(C)=O)cc3)ccc2c1" have Rat paw thickness strictly under 6 mm?
result: t

* * *

In this section, each of the molecules is paired with its reported inhibition in vivo at 5 mg/kg.
# System: carrageenan-induced rat paw edema
# ASSAY EXPLANATION: Carrageenan-induced rat paw edema model
# Assay type: in vivo, Wistar albino rats
# REPORTED CONDITIONS: Rattus norvegicus, po, 3 h, 5.0 mg/kg per os, 3 h after carrageenan
# Procedure: In vivo assessment of anti-inflammatory activity of compounds 1–7 was conducted in the carrageenan-induced rat paw edema model. Inflammation in all rats was induced by an intraplantar injection of […] of 0.5% carrageenan saline in the left hind paw. Two hundred male Wistar albino rats (180–210 g) were divided into seven experimental (n = 168 rats, 8 rats per subgroup) and two control groups (n = 32 rats, 8 rats per subgroup). […]
Number in %, nothing else.

query: Suppose we examine the molecule "CCOc1ccc(NC(=S)NC(=O)[C@@H](C)c2ccc3cc(OC)ccc3c2)cc1" ; what inhibition in vivo at 5 mg/kg value has been reported?
result: 28.6

query: What value of inhibition in vivo at 5 mg/kg has been reported for the following molecule? "COC(=O)[C@H](Cc1cn(C)c2ccccc12)NC(=S)NC(=O)[C@@H](C)c1ccc2cc(OC)ccc2c1"
result: 36.1

query: Reported inhibition in vivo at 5 mg/kg for COc1ccc2cc([C@H](C)C(=O)O)ccc2c1 [Naproxen, reference compound] : what is it?
result: 47.1

query: Report inhibition in vivo at 5 mg/kg for "COc1cccc(NC(=S)NC(=O)[C@@H](C)c2ccc3cc(OC)ccc3c2)c1" please.
result: 28.8

query: Could you tell me which inhibition in vivo at 5 mg/kg is on file for "COc1ccc(NC(=S)NC(=O)[C@@H](C)c2ccc3cc(OC)ccc3c2)cc1" ?
result: 48.9

query: Given "COc1ccc2cc([C@H](C)C(=O)NC(=S)Nc3ccc(C(C)=O)cc3)ccc2c1" , state its recorded inhibition in vivo at 5 mg/kg.
result: 28.8

query: Consider the molecule "COc1ccc2cc([C@H](C)C(=O)NC(=S)Nc3ccc(F)cc3)ccc2c1" and give its measured inhibition in vivo at 5 mg/kg.
result: 23.3

query: I'd like to know its inhibition in vivo at 5 mg/kg. The molecule in question is CCOC(=O)C(Cc1ccccc1)NC(=S)NC(=O)C(C)c1ccc2cc(OC)ccc2c1 (centres unmarked)
result: 28.8
